Quick list: EC50 per entry.
target: ΔF508-CFTR (Homo sapiens, UniProt P13569, DEL508-508); construct: Fisher rat epithelial (FRT) cells for Ussing chamber follow-up; experiment: Assays for ΔF508-CFTR correction and potentiator properties (membrane potential optical and electrophysiological methods); settings: CFTR modulation, tested using the above methods
Sequence (P13569 with tags, fused parts or gaps DEL508-508): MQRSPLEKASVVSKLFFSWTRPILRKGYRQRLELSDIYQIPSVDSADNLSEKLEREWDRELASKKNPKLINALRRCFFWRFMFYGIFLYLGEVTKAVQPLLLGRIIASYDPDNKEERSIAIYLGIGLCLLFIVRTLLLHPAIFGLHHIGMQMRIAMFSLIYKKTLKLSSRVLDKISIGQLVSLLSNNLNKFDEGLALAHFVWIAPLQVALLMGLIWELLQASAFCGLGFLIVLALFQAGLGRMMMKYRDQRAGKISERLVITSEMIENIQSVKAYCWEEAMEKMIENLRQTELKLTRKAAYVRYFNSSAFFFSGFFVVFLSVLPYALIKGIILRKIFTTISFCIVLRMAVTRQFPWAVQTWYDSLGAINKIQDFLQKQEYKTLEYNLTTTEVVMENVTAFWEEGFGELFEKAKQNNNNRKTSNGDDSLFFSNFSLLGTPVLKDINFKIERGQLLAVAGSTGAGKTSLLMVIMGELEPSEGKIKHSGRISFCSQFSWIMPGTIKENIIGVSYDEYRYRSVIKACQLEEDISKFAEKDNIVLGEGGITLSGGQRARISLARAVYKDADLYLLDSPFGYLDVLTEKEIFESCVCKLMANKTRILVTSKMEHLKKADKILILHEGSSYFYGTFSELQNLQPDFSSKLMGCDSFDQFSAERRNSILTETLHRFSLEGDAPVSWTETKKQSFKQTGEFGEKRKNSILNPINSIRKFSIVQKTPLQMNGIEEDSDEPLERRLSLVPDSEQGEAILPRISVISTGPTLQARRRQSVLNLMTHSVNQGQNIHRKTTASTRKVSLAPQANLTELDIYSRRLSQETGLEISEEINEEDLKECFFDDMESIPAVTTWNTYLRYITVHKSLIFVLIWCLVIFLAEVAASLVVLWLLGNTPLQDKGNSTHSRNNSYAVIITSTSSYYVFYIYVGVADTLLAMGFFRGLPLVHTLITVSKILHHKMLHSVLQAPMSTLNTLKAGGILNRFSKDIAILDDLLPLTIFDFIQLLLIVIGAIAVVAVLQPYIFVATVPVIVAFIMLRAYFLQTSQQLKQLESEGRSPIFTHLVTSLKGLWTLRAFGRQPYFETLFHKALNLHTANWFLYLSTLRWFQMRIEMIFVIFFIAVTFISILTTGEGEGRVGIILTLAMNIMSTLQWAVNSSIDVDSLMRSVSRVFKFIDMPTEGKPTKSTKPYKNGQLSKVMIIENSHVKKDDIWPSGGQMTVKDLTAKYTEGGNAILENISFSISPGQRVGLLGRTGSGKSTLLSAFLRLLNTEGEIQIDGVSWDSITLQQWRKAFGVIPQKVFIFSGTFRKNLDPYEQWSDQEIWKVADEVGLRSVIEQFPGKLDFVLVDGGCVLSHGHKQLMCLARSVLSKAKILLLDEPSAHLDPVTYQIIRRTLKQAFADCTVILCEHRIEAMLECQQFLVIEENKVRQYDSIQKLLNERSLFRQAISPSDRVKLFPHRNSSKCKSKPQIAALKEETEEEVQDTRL

Consider the following illustrative entries.
COc1cccc(-c2csc(NC(=O)c3ccccc3)n2)c1 = 10 to 25 µM
CC(C)C(C(=O)Nc1ncc(Cc2ccccc2C#N)s1)c1ccccc1 (centres unmarked) = < 10 µM
O=C(Nc1ncc(Cc2ccccc2Cl)s1)C(c1ccccc1)N1CCN(c2ncccn2)CC1 (centres unmarked) = < 10 µM
CCC(C(=O)Nc1ncc(Cc2ccccc2OC)s1)c1ccccc1 (centres unmarked) = < 10 µM

Next compound, EC50 to be filled in.
**Q:** Suppose we examine the compound COc1ccccc1Cc1cnc(NC(=O)C(c2ccccc2)C(C)C)s1 (centres unmarked) ; what EC50 value has been reported?
**A:** < 10 µM

* * *

target: ΔF508-CFTR (Homo sapiens, UniProt P13569, DEL508-508); construct: Fisher rat epithelial (FRT) cells for Ussing chamber follow-up; test: Assays for ΔF508-CFTR correction and potentiator properties (membrane potential optical and electrophysiological methods); details: CFTR modulation, tested using the above methods
experimental-readout: EC50

Consider the following illustrative entries.
O=C(Cc1ccccc1)Nc1ncc(Cc2cccc(Cl)c2)o1 [compound 157] = < 10 µM
CCC(=O)Nc1nc(-c2ccccc2)c(-c2ccccc2)s1 [compound 50] = < 10 µM
Cc1ccc(C(=O)Nc2nc(-c3ccc(C)cc3)c(-c3ccccc3)s2)cc1 [compound 39] = < 10 µM
O=C(Nc1ncc(Cc2cccc(Cl)c2)s1)C(c1ccc(Cl)cc1)c1ccc(Cl)cc1 [compound 125] = < 10 µM
COc1ccccc1-c1csc(NC(=O)c2ccccc2)n1 [compound 69] = 10 to 25 µM
COc1ncccc1Cc1cnc(NC(=O)C(c2ccccc2)c2ccccc2)s1 [compound 282] = < 10 µM
COc1cccc(C(=O)Nc2nc(-c3ccccc3)cs2)c1 [compound 49] = 10 to 25 µM
O=C(Nc1ncc(Cc2ccccc2Cl)s1)C1CC1 [compound 207] = < 10 µM

Next compound, EC50 to be filled in.
**Q:** Give ΔF508-CFTR (Homo sapiens, UniProt P13569, DEL508-508) EC50 for CCC(NC)C(=O)Nc1ncc(Cc2ccccc2Cl)s1 (stereo not drawn) [compound 218]
**A:** 25 to 60 µM

* * *

biological target: ΔF508-CFTR (Homo sapiens, UniProt P13569, DEL508-508); construct: Fisher rat epithelial (FRT) cells for Ussing chamber follow-up; assay: Assays for ΔF508-CFTR correction and potentiator properties (membrane potential optical and electrophysiological methods); conditions: CFTR modulation, tested using the above methods
experimental-readout: EC50

Consider the following illustrative entries.
O=C(Nc1ncc(Cc2ccccc2)s1)C(c1ccccc1)c1ccccc1 = < 10 µM
O=C(Nc1ncc(Cc2ccccc2Cl)s1)C(c1ccccc1)N1CCC(O)CC1 (centres unmarked) = < 10 µM
COc1cccc(C(=O)Nc2nc(-c3ccccc3)c(-c3ccccc3)s2)c1 = < 10 µM

**Q:** Suppose we examine the compound `Cc1cccc(C(=O)Nc2nc(-c3ccccc3)cs2)c1` ; what EC50 value has been reported?
**A:** 10 to 25 µM

**Q:** Would you mind doing `O=C(Nc1ncc(Cc2ccc(Cl)cc2)o1)C(c1ccccc1)c1ccccc1` as well?
**A:** 25 to 60 µM

* * *

target: ΔF508-CFTR (Homo sapiens, UniProt P13569, DEL508-508); construct: Fisher rat epithelial (FRT) cells for Ussing chamber follow-up; assay: Assays for ΔF508-CFTR correction and potentiator properties (membrane potential optical and electrophysiological methods); conditions: CFTR modulation, tested using the above methods
experimental-readout: EC50

Consider the following illustrative entries.
Cc1nc(NC(=O)COc2ccccc2C(C)C)sc1C = < 10 µM
CC(C)C(C(=O)Nc1nc(-c2ccccc2)cs1)c1ccccc1 (stereo not shown) = < 10 µM
COc1ccccc1C(=O)Nc1nc(-c2ccccc2)c(-c2ccccc2)s1 = < 10 µM
CCC(C)C(C(=O)Nc1ncc(Cc2ccccc2C#N)s1)c1ccccc1 (stereo not shown) = < 10 µM
O=C(Nc1nc(-c2ccccc2)c(-c2ccccc2)s1)c1ccccc1 = < 10 µM
O=C(Nc1nc(-c2ccccc2Cl)cs1)c1cccc(Cl)c1 = 10 to 25 µM
CN(C)C(Cc1ccccc1)C(=O)Nc1ncc(Cc2ccccc2Cl)s1 (stereo not shown) = < 10 µM
O=C(Nc1ncc(Cc2ccccc2Cl)s1)C(c1ccc(Cl)cc1)c1ccc(Cl)cc1 = < 10 µM

**Q:** Suppose we examine the compound O=C(Nc1ncc(Cc2ccccc2Cl)s1)C(c1ccccc1)N1CCCCC1 (stereo not shown) ; what EC50 value has been reported?
**A:** < 10 µM

**Q:** Would you mind doing `O=C(O)CSCC(=O)Nc1nc(-c2ccccc2)c(-c2ccccc2)s1` as well?
**A:** 10 to 25 µM

**Q:** Would you mind doing `COc1ccccc1Cc1cnc(NC(=O)C2c3ccccc3-c3ccccc32)s1` as well?
**A:** < 10 µM

**Q:** Would you mind doing `CCCc1nc(NC(=O)C(c2ccccc2)c2ccccc2)sc1C(=O)OCC` as well?
**A:** < 10 µM

**Q:** Would you mind doing CC(C)C(C(=O)Nc1nc(-c2ccccc2)c(-c2ccccc2)s1)c1ccccc1 (stereo not shown) as well?
**A:** < 10 µM

**Q:** Would you mind doing O=C(Nc1ncc(Cc2ccccc2Cl)o1)C(c1ccccc1)C1CCCC1 (stereo not shown) as well?
**A:** 10 to 25 µM

* * *

Quick list: EC50 per entry.
target: ΔF508-CFTR (Homo sapiens, UniProt P13569, DEL508-508); construct: Fisher rat epithelial (FRT) cells for Ussing chamber follow-up; test: Assays for ΔF508-CFTR correction and potentiator properties (membrane potential optical and electrophysiological methods); details: CFTR modulation, tested using the above methods

Consider the following illustrative entries.
O=C(Cc1ccccc1)Nc1nc(-c2cccc3ccccc23)cs1 = < 10 µM
CCN(C)C(C(=O)Nc1ncc(Cc2ccccc2Cl)s1)c1ccccc1 (centres unmarked) = < 10 µM
Cc1ccccc1C(=O)Nc1nc(-c2ccccc2)c(-c2ccccc2)s1 = < 10 µM
CCOC(=O)C1CCN(C(C(=O)Nc2ncc(Cc3ccccc3Cl)s2)c2ccccc2)CC1 (centres unmarked) = < 10 µM
CN(C)C(C(=O)Nc1ncc(Cc2ccccc2Cl)s1)c1ccccc1 (centres unmarked) = < 10 µM
O=C(Nc1nc(-c2ccccc2)cs1)C1CCCCC1 = 10 to 25 µM

**Q:** Suppose we examine the compound CCC(C(=O)Nc1nc2ccc(C)cc2s1)c1ccccc1 (centres unmarked) ; what EC50 value has been reported?
**A:** 10 to 25 µM

**Q:** Would you mind doing CCC(C)C(C(=O)Nc1nc(-c2ccccc2)c(-c2ccccc2)s1)c1ccccc1 (centres unmarked) as well?
**A:** < 10 µM

**Q:** Would you mind doing `O=C(Nc1nc(-c2ccccc2)cs1)c1ccccc1` as well?
**A:** 10 to 25 µM

**Q:** Would you mind doing `COc1ccc(Cc2cnc(NC(=O)C(c3ccccc3)c3ccccc3)s2)cc1` as well?
**A:** < 10 µM

**Q:** Would you mind doing CCC(C(=O)Nc1nc(-c2ccccc2)c(-c2ccccc2)s1)c1ccccc1 (centres unmarked) as well?
**A:** < 10 µM

**Q:** Would you mind doing CCC(C(=O)Nc1ncc(Cc2ccccc2Cl)s1)N(CC)CC (centres unmarked) as well?
**A:** 10 to 25 µM

**Q:** Would you mind doing `O=C(Nc1nc(-c2ccccc2)cs1)c1ccccc1Cl` as well?
**A:** 10 to 25 µM

**Q:** Would you mind doing CCC(C(=O)Nc1ncc(Cc2ccccc2OC)s1)c1ccc(OC)cc1 (centres unmarked) as well?
**A:** < 10 µM

**Q:** Would you mind doing `CCc1ccccc1OCC(=O)Nc1nc2ccccc2s1` as well?
**A:** 10 to 25 µM

**Q:** Would you mind doing `O=C(Nc1nc(-c2cccc(Cl)c2)cs1)c1ccccc1` as well?
**A:** 10 to 25 µM

**Q:** Would you mind doing `N#CCC(=O)Nc1ncc(Cc2cccc(Cl)c2)s1` as well?
**A:** 10 to 25 µM

**Q:** Would you mind doing `O=C(Nc1nc(-c2ccc(Br)cc2)cs1)c1cccc(Cl)c1` as well?
**A:** < 10 µM

**Q:** Would you mind doing `COc1ccc(-c2ccc(C(=O)Nc3nc4ccccc4s3)cc2)cc1` as well?
**A:** < 10 µM

**Q:** Would you mind doing `COc1cccc(C(=O)Nc2nc(-c3ccccc3OC)cs2)c1` as well?
**A:** 10 to 25 µM

**Q:** Would you mind doing CCC(C)C(C(=O)Nc1ncc(Cc2ccccc2OC)s1)c1ccccc1 (centres unmarked) as well?
**A:** < 10 µM

**Q:** Would you mind doing CCC(C)C(C(=O)Nc1ncc(Cc2ccc(Cl)cc2)s1)c1ccccc1 (centres unmarked) as well?
**A:** < 10 µM
